Listed next: entries and their corresponding inhibition at 1 µM.
tgt: human BACE-1 (Homo sapiens)
method summary: CEREP BACE Inhibition Assay
Assay type: biochemical
measurement setup: 1.0 μM; percent inhibition of the control activity; recombinant enzyme; read-out: % Inhibition @ 1.0 μM
I'd appreciate it if you wrote the number followed by its unit.

The cases that follow already have their inhibition at 1 µM on record.
• CN(CCO)C(=O)CC[C@@H](C1CCCCC1)N1Cc2cc(Oc3ccccc3)ncc2N=C1N = 77%
• NC1=Nc2cnc(Oc3ccccc3)cc2CN1[C@@H](CCn1cc(C2CCCCC2)nn1)C1CCCCC1 = 95%
• CC(C)CN(C)CCC[C@@H](C1CCCCC1)N1Cc2cc(Oc3ccccc3)ncc2N=C1N = 93%

Input CC(C)[C@H](COCc1cc(C(C)(C)C)no1)N1Cc2cc(Oc3ccccc3)ncc2N=C1N . Output inhibition at 1 µM: 87%

Input CN(C(=O)C[C@@H](C1CCCCC1)N1Cc2cc(Oc3ccccc3)ncc2N=C1N)C1CCCCC1 . Output inhibition at 1 µM: 81%

Input NC1=Nc2cnc(Oc3ccccc3)cc2CN1[C@@H](CN1C(=O)NC2(CCCCC2)C1=O)C1CCCCC1 . Output inhibition at 1 µM: 78%

Input CC(C)=CCOC[C@@H](C(C)C)N1Cc2cc(Oc3ccccc3)ncc2N=C1N . Output inhibition at 1 µM: 52%

###

tgt: human BACE-1 (Homo sapiens, UniProt P56817)
Sequence (P56817 46-501): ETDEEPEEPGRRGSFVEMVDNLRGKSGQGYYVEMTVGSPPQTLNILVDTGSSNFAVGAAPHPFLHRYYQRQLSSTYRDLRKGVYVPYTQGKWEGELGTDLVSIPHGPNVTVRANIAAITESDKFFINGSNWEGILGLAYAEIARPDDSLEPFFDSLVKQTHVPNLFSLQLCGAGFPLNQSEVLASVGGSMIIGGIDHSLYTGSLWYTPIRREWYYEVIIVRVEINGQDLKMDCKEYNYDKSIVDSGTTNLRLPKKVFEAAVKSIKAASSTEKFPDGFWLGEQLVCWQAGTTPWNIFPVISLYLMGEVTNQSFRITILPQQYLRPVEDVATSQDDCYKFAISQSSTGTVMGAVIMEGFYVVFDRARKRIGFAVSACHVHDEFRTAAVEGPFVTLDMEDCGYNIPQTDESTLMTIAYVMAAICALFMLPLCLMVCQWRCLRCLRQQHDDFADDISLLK
method summary: CEREP BACE Inhibition Assay
Assay type: biochemical
measurement setup: recombinant enzyme; read-out: IC50
reported endpoint: pIC50
// scale note: pIC50 = -log10(conc_M); give the bare number

The cases that follow already have their pIC50 on record.
* CC(C)(C)OC[C@@H](NC(=O)CC[C@@H](C1CCCCC1)N1Cc2cc(Oc3ccccc3)ncc2N=C1N)C(=O)N1CCOCC1 | 7.09
* CC(C)(C)OC[C@@H](NC(=O)CC[C@@H](C1CCCCC1)N1Cc2cc(Oc3ccccc3)ncc2N=C1N)C(=O)N[C@@H](CCC(=O)O)C(=O)O [Compound 225] | 6.96
* CC(C)OC(=O)[C@H](COC(C)(C)C)NC(=O)CC[C@@H](C1CCCCC1)N1Cc2cc(Oc3ccccc3)ncc2N=C1N | 6.72

Input NC1=Nc2cnc(Oc3ccccc3)cc2CN1[C@@H](CCC(=O)N1CCCC[C@H]1CC(=O)O)C1CCCCC1 . Output pIC50: 6.96

Input NC1=Nc2cnc(Oc3ccccc3)cc2CN1[C@@H](CCCNC[C@H]1CCCO1)C1CCCCC1 . Output pIC50: 6.80

Input CC(C)CN(CCN1CCOCC1)C(=O)CC[C@@H](C(C)C)N1Cc2cc(Oc3ccccc3)ncc2N=C1N . Output pIC50: 6.72

###

tgt: UniProt P56817
method summary: CEREP BACE Inhibition Assay
Type: biochemical
measurement setup: recombinant enzyme; read-out: IC50
Listed next: entries and their corresponding pIC50.
// scale note: pIC50 = -log10(conc_M); give the bare number

The cases that follow already have their pIC50 on record.
* CC(C)(C)OC(=O)N1CCC(NC(=O)CC[C@@H](C2CCCCC2)N2Cc3cc(Oc4ccccc4)ncc3N=C2N)CC1 [Compound 150] | 6.77
* NC1=Nc2cnc(Oc3ccccc3)cc2CN1[C@@H](CCC(=O)N(CC(=O)O)C1CCCCC1)C1CCCCC1 [Compound 84] | 7.00
* CC(C)(C)OC[C@@H](NC(=O)CC[C@@H](C1CCCCC1)N1Cc2cc(Oc3ccccc3)ncc2N=C1N)C(N)=O [Compound 111] | 6.96
* NC1=Nc2cnc(Oc3ccccc3)cc2CN1[C@@H](CCn1cc(C2CCCCC2)nn1)C1CCCCC1 [Compound 198] | 6.85

Let us move to another entry and its pIC50.
Input NC1=Nc2cnc(Oc3ccccc3)cc2CN1[C@@H](CCC(=O)N(CCOCCOCCOCCO)C1CCCCC1)C1CCCCC1 [Compound 176] . Output pIC50: 6.85

Attribution: patent US7531545B2
